Test system: NKL (IL-2 2.5 ng/mL);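 further: normalised to DMSO-only wells as negative and benzethonium chloride as positive control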
Experiment: percent inhibition of viability; higher = more inhibition
Conditions: 72 h; 10 nM
PROPERTY NAME: percent inhibition of viability (%)
Report as a plain number; the unit % is understood.

Some compounds with known percent inhibition of viability results, for comparison:
COMPOUND	percent inhibition of viability [%]
CC(C)N(C[C@H]1O[C@@H](n2cnc3c(N)ncnc32)[C@H](O)[C@@H]1O)[C@H]1C[C@@H](CCc2nc3cc(C(C)(C)C)ccc3[nH]2)C1 [EPZ-5676] (max concentration tested 1000 nM)	-2.76
c1ccc(Cn2c(-c3ccc(OC[C@H](C4CCNCC4)n4c(-c5ccccc5)nc5ccccc54)cc3)nc3ccccc32)cc1 [deltarasin] (max concentration tested 10000 nM)	-0.19
CCCCCCCCc1ccc(CCC(N)(CO)CO)cc1 [Fingolimod] (max concentration tested 10000 nM)	6.8

Query block: # assay system NKL (IL-2 2.5 ng/mL): give percent inhibition of viability of CC1(COc2ccc3c(c2)ncn3-c2ccc3cccc(N4CCC(N)CC4)c3n2)COC1 [Crenolanib] (max concentration tested 10000 nM);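 further: normalised to DMSO-only wells as negative and benzethonium chloride as positive control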
Result block: 0.04

Query block: # assay system NKL (IL-2 2.5 ng/mL): give percent inhibition of viability of O=C(NC[C@H](O)CO)c1ccncc1Nc1ccc(I)cc1F [Pimasertib] (max concentration tested 10000 nM);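 further: normalised to DMSO-only wells as negative and benzethonium chloride as positive control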
Result block: 10.9

Query block: # assay system NKL (IL-2 2.5 ng/mL): give percent inhibition of viability of NC1(c2ccc(-c3nc4ccn5c(=O)[nH]nc5c4cc3-c3ccccc3)cc2)CCC1 [MK-2206] (max concentration tested 1000 nM);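 further: normalised to DMSO-only wells as negative and benzethonium chloride as positive control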
Result block: -5.82
